Measured values drawn from PubChem BioAssay (NCI) for this set.

Reported TGI values follow for various compounds
System: SNB-19 CNS
measurementDescription: NCI tumour cell line growth inhibition, 48 h
Where a SMILES comes first, the peptide text is derived from it. [ ]: non-standard residue; d: D form. The star is where a group is joined. Phe(4-NO2) = N[CH](Cc1ccc([N+](=O)[O-])cc1)C(=O)O; Boc = CC(C)(C)OC(=O)*

Example cases with answers are listed next.
compound | assayTarget | TGI
Cc1cnc(C(=O)Nc2nc3ccc(S(=O)(=O)Nc4ccc(C5(C(F)(F)F)CC5)cc4)cc3[nH]2)cn1 | SNB-19 CNS | 13.3 µM
N#Cc1cccc(/C=N/N=C(\N)NO)c1 | SNB-19 CNS | > 100 µM
OCC#Cc1ccccc1C#CCCCCCC#Cc1ccccc1C#CCO | SNB-19 CNS | > 100 µM

I looked up `O=C(NCCCCCCNC(=O)c1cc(-c2ccccc2)nc2ccccc12)c1cc(-c2ccccc2)nc2ccccc12` and its TGI for SNB-19 CNS was > 100 µM

I looked up `COC(=O)c1c2cccccc-2c(Cc2c3cccccc-3c(C(=O)OC)c2O)c1O` and its TGI for SNB-19 CNS was > 100 µM

I looked up CNC(=O)CCC(NC(=O)OC(C)(C)C)C(=O)NC(Cc1ccc([N+](=O)[O-])cc1)C(=O)NCC(=O)NC (stereo not drawn) (Boc-Glu(NHMe)-[Phe(4-NO2)]-Gly-NHMe; configuration not given here) and its TGI for SNB-19 CNS was > 100 µM

I looked up `COc1ccc(-c2ccc(-c3ccc(C(=N)N)o3)o2)cc1` and its TGI for SNB-19 CNS was 11.3 µM

I looked up COc1cc(/C=c2\sc3n(c2=O)C(c2ccc(Cl)cc2)C2=C(CCCC2C)N=3)cc(OC)c1OC (stereo not drawn) and its TGI for SNB-19 CNS was > 100 µM
